- TARGET_SYSTEM: cloned human dopamine D3 receptors (Homo sapiens)
- Construct: expressed in transfected cells
- PROTOCOL: [N-Methyl-3H]Spiroperidol binding to cloned human dopamine D3 receptors
METRIC: Ki (nM)

- COMPOUND: "O=C(NC[C@@H]1C[C@H]1CN1CCN(c2csc3cc(C(F)(F)F)ccc23)CC1)NC1CCCCC1"
  Ki (nM): 18.2
- COMPOUND: "O=C(NCCCCN1C2CCC1CC(c1noc3cc(F)ccc13)C2)Nc1ccc(-c2ccccc2)cc1 (centres unmarked)"
  Ki (nM): 182
- COMPOUND: "COc1ccc(NC(=O)NCCCCN2CCC(c3noc4cc(C)sc34)CC2)cc1"
  Ki (nM): 9.16
- COMPOUND: "O=C(NCCCN1CCCCC1)NC[C@@H]1C[C@H]1CN1CCN(c2csc3cc(C(F)(F)F)ccc23)CC1"
  Ki (nM): 0.39

[a] O=C(NCCCCN1CCCN(c2noc3ccsc23)CC1)Nc1cc(C(F)(F)F)ccc1Cl
[b] C=CCN(CC1CC1CN1CCCN(c2csc3cc(F)ccc23)CC1)C(=O)Nc1ccc(OC)cc1 (racemic)
Endpoint returns whichever of a and b has the numerically higher Ki. Refer to your chosen entry by its label in the reply.
a

[I] O=C(NCCCCN1CCCN(c2noc3ccsc23)CC1)Nc1ccc(C(F)(F)F)cc1
[II] COc1cc(NC(=O)NCCCCN2CCN(c3noc4ccsc34)CC2)cc(OC)c1OC
// task: argmin of Ki over [ I , II ] Refer to your chosen entry by its label in the reply.
II

###

- TARGET_SYSTEM: cloned human dopamine D3 receptors (Homo sapiens, UniProt P35462)
- Construct: expressed in transfected cells
- Sequence (P35462 whole entry): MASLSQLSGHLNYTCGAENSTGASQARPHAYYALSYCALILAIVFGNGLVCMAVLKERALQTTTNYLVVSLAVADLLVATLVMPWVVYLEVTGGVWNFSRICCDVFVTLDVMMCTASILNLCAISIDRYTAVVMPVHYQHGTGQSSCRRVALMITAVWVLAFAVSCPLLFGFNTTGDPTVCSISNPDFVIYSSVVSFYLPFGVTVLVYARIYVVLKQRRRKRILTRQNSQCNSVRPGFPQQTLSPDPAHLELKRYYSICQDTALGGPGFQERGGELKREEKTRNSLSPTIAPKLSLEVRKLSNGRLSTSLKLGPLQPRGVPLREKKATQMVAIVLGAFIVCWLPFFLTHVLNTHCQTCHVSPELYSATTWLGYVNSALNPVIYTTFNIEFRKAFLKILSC
- PROTOCOL: [N-Methyl-3H]Spiroperidol binding to cloned human dopamine D3 receptors
- CONDITION_CONTEXT: Table III; read-out: d3Ki
- Procedure: [N-Methyl-^3H]Spiroperidol Binding to Cloned Human Dopamine D3 Receptors […] The 96-Well Packard Unifilters GF/B are incubated for >1 h at 25° C. in 0.1% polyethylamine (from 3,b). […] The plates are then shaken on an orbital shaker for 1 h and placed in the Packard Topcount and counted for at least 5 minutes for each point. […]
pKi: −log10 of the molar value.
METRIC: pKi

- MOLECULE: "O=C(NCCCCN1CCN(c2csc3cc(C(F)(F)F)ccc23)CC1)Nc1ccccc1"
  pKi: 8.60
- MOLECULE: "O=C(NCCCCN1CCN(c2csc3cc(C(F)(F)F)ccc23)CC1)Nc1cccc(F)c1"
  pKi: 8.80
- MOLECULE: "O=C(NCCCCN1CCN(c2c(Cl)sc3cc(F)ccc23)CC1)Nc1ccc(Br)cc1"
  pKi: 8.22
- MOLECULE: "O=C(NCCCCN1CCN(c2c(Cl)sc3cc(F)ccc23)CC1)Nc1ccc(OCc2ccccc2)cc1"
  pKi: 7.12
- MOLECULE: "O=C(NCCCCN1CCC(c2noc3ccsc23)CC1)NC1CCCCC1"
  pKi: 7.52

[a] O=C(NCCCCN1CCN(c2c(Cl)sc3cc(F)ccc23)CC1)Nc1ccc(Cl)cc1
[b] COc1ccc(NC(=O)NCCCCN2CCN(c3c(Cl)sc4cc(F)ccc34)CC2)cc1
// task: argmin of pKi over [ a , b ] Refer to your chosen entry by its label in the reply.
b
(b: 7.67, a: 8.25)

###

- TARGET_SYSTEM: cloned human dopamine D3 receptors (Homo sapiens, UniProt P35462)
- Construct: expressed in transfected cells
- PROTOCOL: [N-Methyl-3H]Spiroperidol binding to cloned human dopamine D3 receptors
- CONDITION_CONTEXT: Table III; read-out: d3Ki
- Method: [N-Methyl-^3H]Spiroperidol Binding to Cloned Human Dopamine D3 Receptors […] The 96-Well Packard Unifilters GF/B are incubated for >1 h at 25° C. in 0.1% polyethylamine (from 3,b). […] The plates are then shaken on an orbital shaker for 1 h and placed in the Packard Topcount and counted for at least 5 minutes for each point. […]
pKi: −log10 of the molar value.
METRIC: pKi

- MOLECULE: "CC(C)c1ccccc1NC(=O)NCCCCN1CCC(c2noc3ccsc23)CC1 [compound 815952]"
  TARGET_SYSTEM: "cloned human dopamine D3 receptors (Homo sapiens, UniProt P35462)"
  pKi: 7.57
- MOLECULE: "O=C(NCCCCN1CCC(c2noc3ccsc23)CC1)NC12CC3CC(CC(C3)C1)C2 [compound 816210]"
  TARGET_SYSTEM: "cloned human dopamine D3 receptors (Homo sapiens, UniProt P35462)"
  pKi: 6.73
- MOLECULE: "CCCCCCCCNC(=O)NCCCCN1CCC(c2noc3ccsc23)CC1 [compound 815946]"
  TARGET_SYSTEM: "cloned human dopamine D3 receptors (Homo sapiens, UniProt P35462)"
  pKi: 7.55

[A] CCCCOc1ccc(NC(=O)NCCCCN2CCN(c3c(Cl)sc4cc(F)ccc34)CC2)cc1 [compound 815166]
[B] CC(NC(=O)NCCCCN1CCC(c2noc3ccsc23)CC1)c1ccc(Br)cc1 (centres unmarked) [compound 815937]
// task: argmin of pKi over [ A , B ] Refer to your chosen entry by its label in the reply.
B

###

- TARGET_SYSTEM: cloned human dopamine D3 receptors (Homo sapiens, UniProt P35462)
- Construct: expressed in transfected cells
- PROTOCOL: [N-Methyl-3H]Spiroperidol binding to cloned human dopamine D3 receptors
- CONDITION_CONTEXT: Table III; read-out: d3Ki
pKi: −log10 of the molar value.
METRIC: pKi

- CHEM_SMILES: "O=C(NCCCCN1CCN(c2csc3cc(C(F)(F)F)ccc23)CC1)Nc1ccc(F)cc1"
  pKi: 8.21
- CHEM_SMILES: "O=C(NCCCCN1CCN(c2c(Cl)sc3cc(F)ccc23)CC1)Nc1cccc2ccccc12"
  pKi: 7.93
- CHEM_SMILES: "COc1ccc(NC(=O)NCCCCN2CCN(c3csc4cc(C(F)(F)F)ccc34)CC2)c(OC)c1"
  pKi: 7.77

[P] O=C(NCCCCN1CCN(c2csc3cc(C(F)(F)F)ccc23)CC1)Nc1ccc(F)cc1F
[Q] O=C(NCCCCN1CCC(c2noc3ccsc23)CC1)Nc1ccc(Cl)c([N+](=O)[O-])c1
// task: argmin of pKi over [ P , Q ] Refer to your chosen entry by its label in the reply.
Q

[A] CCOC(=O)c1ccc(NC(=O)NCCCCN2CCC(c3noc4ccsc34)CC2)cc1
[B] CC(=O)c1ccc(NC(=O)NCCCCN2CCN(c3c(Cl)sc4cc(F)ccc34)CC2)cc1
// task: argmin of pKi over [ A , B ] Refer to your chosen entry by its label in the reply.
A

###

- TARGET_SYSTEM: cloned human dopamine D3 receptors (Homo sapiens)
- Construct: expressed in transfected cells
- PROTOCOL: [N-Methyl-3H]Spiroperidol binding to cloned human dopamine D3 receptors
- CONDITION_CONTEXT: Table III; read-out: d3Ki
METRIC: Ki (nM)

In the examples that follow, each entry is paired with its recorded Ki.
- COMPOUND: "COc1c(Cl)cccc1NC(=O)NCCCCN1CCC(c2noc3ccsc23)CC1 [compound 815947]"
  UNIT_NAME: "nM"
  Ki: 26
- COMPOUND: "CCO[Si](CCCNC(=O)NCCCCN1CCC(c2noc3ccsc23)CC1)(OCC)OCC"
  UNIT_NAME: "nM"
  Ki: 153
- COMPOUND: "O=C(NCCCCN1CCC(c2noc3ccsc23)CC1)Nc1ccc(Cl)cc1Cl [compound 816566]"
  UNIT_NAME: "nM"
  Ki: 95.1
- COMPOUND: "O=C(NCCCCN1CCN(c2c(Cl)sc3cc(F)ccc23)CC1)Nc1ccc(C(F)(F)F)cc1"
  UNIT_NAME: "nM"
  Ki: 38
- COMPOUND: "O=C(NCCCCN1CCN(c2c(Cl)sc3cc(F)ccc23)CC1)Nc1ccc(-c2ccccc2)cc1"
  UNIT_NAME: "nM"
  Ki: 192
- COMPOUND: "O=C(NCCCCN1CCN(c2c(Cl)sc3cc(F)ccc23)CC1)Nc1cccc(F)c1"
  UNIT_NAME: "nM"
  Ki: 25.2
- COMPOUND: "O=C(NCCCCN1CCN(c2csc3cc(C(F)(F)F)ccc23)CC1)NC1CCCCC1"
  UNIT_NAME: "nM"
  Ki: 4.68
- COMPOUND: "COc1ccc(NC(=O)NCCCCN2CCN(c3csc4cc(C(F)(F)F)ccc34)CC2)cc1 [compound 815994]"
  UNIT_NAME: "nM"
  Ki: 8.87

[1] O=C(NCCCCN1CCN(c2c(-c3ccccc3)sc3cc(F)ccc23)CC1)NC1CCCCC1
[2] O=C(NCCCCN1CCN(c2csc3cc(C(F)(F)F)ccc23)CC1)NCc1ccccc1
Endpoint returns whichever of 1 and 2 has the numerically higher Ki. Refer to your chosen entry by its label in the reply.
2

[I] CCOC(=O)CCNC(=O)NCCCCN1CCC(c2noc3ccsc23)CC1
[II] COc1ccc(NC(=O)NCCCCN2CCC(c3noc4ccsc34)CC2)c(OC)c1 [compound 818310]
[III] O=C(NCCCCN1CCC(c2noc3ccsc23)CC1)Nc1cccc2ccccc12
Please list the entries, largest Ki first. Show the ranking through the labels, in the order asked for.
I, II, III
(I: 198 nM, II: 133 nM, III: 52 nM)

[a] COc1ccc(NC(=O)NCCCCN2CCC(c3noc4ccsc34)CC2)c(OC)c1 [compound 816767]
[b] CCc1cccc(NC(=O)NCCCCN2CCC(c3noc4ccsc34)CC2)c1
[c] O=C(NCCCCN1CCC(c2noc3ccsc23)CC1)Nc1ccc(Br)cc1
[d] O=C(NCCCCN1CCC(c2noc3ccsc23)CC1)NCc1cc(=O)oc2cc3c(cc12)OCO3
[e] CCOC(=O)C(CC(C)C)NC(=O)NCCCCN1CCC(c2noc3ccsc23)CC1 (stereo not shown)
Please list the entries, largest Ki first. Show the ranking through the labels, in the order asked for.
d, a, e, c, b
